Test: ATG_NRF2_ARE_CIS: Attagene CIS-FACTORIAL HepG2 Assay for human Nuclear Factor Erythroid 2 Related Factor 2 (NFR2) response to Antioxidant Response Elements (ARE) (AID 2282992)
Conditions: HepG2 Attagene ARE/NRF2 reporter, transcription factor activity; actives raise or lower the signal
Active and inactive are the calls of the source. How the source made its calls: active means hit-call score of the fitted dose curve at least 0.9, where 1 is the maximum; inactive means score below 0.9.
Field 'call' accepts true = active, false = inactive

The following compounds have reported results that may help.
{"COMPOUND": "OCC(O)c1ccccc1 (stereo not drawn)", "CAT": "false"}
{"COMPOUND": "Cc1ccc(OC(=O)c2ccccc2O)cc1", "CAT": "true"}
{"COMPOUND": "C=C1C[C@]23C[C@@]1(O)CC[C@H]2[C@@]12C=C[C@H](O)[C@@](C)(C(=O)O1)[C@H]2[C@@H]3C(=O)O", "CAT": "false"}
{"COMPOUND": "O=[N+]([O-])c1ccc(O)cc1C(F)(F)F", "CAT": "true"}
{"COMPOUND": "C[N+](C)(C)CCCCCC[N+](C)(C)C", "CAT": "false"}

(Q) Status in this test for COc1ccc(CCC(C)=O)cc1 ?
(A) false

(Q) Look up the recorded call for CCc1ccc(O)cc1 in this test.
(A) false

(Q) State the result this test recorded for Cc1ncc([N+](=O)[O-])n1CCO .
(A) false
